These measurements were taken from PubChem BioAssay AID1159580.

Assay: chemical genetic growth profiling, strain panel (AID 1159580);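 note: tested at 20 µM; growth read once vehicle control cultures reached saturation at 30 °C; 1 = growth at the plate median or of vehicle wells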
Settings: S. cerevisiae deletion strains, growth OD, locus YLR418C, strain cdc73, stronger effect = lower value
In all, about 5,500 compounds went through this assay and about 2,000 (36%) were called active. About 18% were inconclusive and are not listed. The list shows a part of the results.
normalized growth: recorded values
Lab note: record just the number, no unit beside it.

Here are 4 compounds together with their reported answers.
>  <COMPOUND>
CC(C)N(CCC(C(N)=O)(c1ccccc1)c1ccccn1)C(C)C (stereo not given)

>  <METRIC_NAME>
normalized growth

>  <DATA_VALUE>
0.967

$$$$
>  <COMPOUND>
Oc1cc2c(cc1O)C1c3ccc(O)c(O)c3OCC1(O)C2 (stereo not given)

>  <METRIC_NAME>
normalized growth

>  <DATA_VALUE>
0.963

$$$$
>  <COMPOUND>
NC(=NCCC[C@H](N)C(=O)O)N[N+](=O)[O-]

>  <METRIC_NAME>
normalized growth

>  <DATA_VALUE>
1.04

$$$$
>  <COMPOUND>
CC(=O)Oc1ccc2c(c1OC(C)=O)OCC1(O)Cc3c(cc(OC(C)=O)c(OC(C)=O)c3OC(C)=O)C21 (stereo not given)

>  <METRIC_NAME>
normalized growth

>  <DATA_VALUE>
1.02

$$$$

# evaluate next
Prompt: What value of normalized growth has been reported for the following compound? Cc1cc(OC(=O)c2c(C)cc(O)cc2O)cc(O)c1C(=O)O
Completion: 0.951

---

Experiment: chemical genetic growth profiling, strain panel (AID 1159580)
Conditions: S. cerevisiae deletion strains, growth OD, locus YPL241C, strain CIN2, stronger effect = lower value
The campaign covered roughly 5,500 compounds. About 2,000 (36%) were called active. About 18% were inconclusive and are not listed. This is one part of the list.
Strictly below 1 in normalized growth: True. Otherwise: False.

>  <MOL_SMILES>
CSc1nsc(SC)c1C(=O)NC(=O)Nc1ccc(F)cc1F

>  <CATEGORY_LABEL>
False

$$$$
>  <MOL_SMILES>
CCOC(=O)c1sc(SC(C)C)c2c1CCCC2=O

>  <CATEGORY_LABEL>
True

$$$$

Prompt: Would you kindly verify if normalized growth of Cc1cc(C)c(CSCCNC(=O)Nc2ccc(F)cc2F)c(C)c1 is strictly less than 1?
Completion: False

---

Assay: chemical genetic growth profiling, strain panel (AID 1159580)
Conditions: S. cerevisiae deletion strains, growth OD, locus YLR370C, strain arc18
About 2,000 (36%) of roughly 5,500 compounds were called active. Not shown: some 18% with an inconclusive outcome. Rule as the data show it: active = normalized growth mostly below about 0.91 (no sharp cut-off); inconclusive = no clear call, values can overlap the other calls; inactive = mostly above about 0.92. Some of the results follow.
Bench note: report the call from active, inactive

>  <COMPOUND>
NC(=O)CN1CCCC1=O

>  <CATEGORY_LABEL>
inactive

$$$$
>  <COMPOUND>
C[C@@H]1CC[C@@]2(OC1)OC1CC3C4CC=C5C[C@@H](O)CC[C@]5(C)C4CC[C@]3(C)C1[C@@H]2C (stereo partly specified)

>  <CATEGORY_LABEL>
inactive

$$$$
>  <COMPOUND>
OCC(O)C(O)C(O)C(O)C(O)CO (stereo unspecified)

>  <CATEGORY_LABEL>
inactive

$$$$
>  <COMPOUND>
CCCCC1C(=O)N(c2ccccc2)N(c2ccc(O)cc2)C1=O (stereo unspecified)

>  <CATEGORY_LABEL>
inactive

$$$$
>  <COMPOUND>
CC1CCC2(OC1)OC1CC3C4CC[C@H]5C[C@@H](O)CC[C@]5(C)C4CC(=O)[C@]3(C)C1C2C (stereo partly specified)

>  <CATEGORY_LABEL>
inactive

$$$$

Prompt: Recorded test outcome, item CCCC(C)(COC(N)=O)COC(=O)NC(C)C (stereo unspecified)
Completion: inactive

Prompt: What call does the record list for CNC(=O)Oc1cccc2c1OC(C)(C)O2 ?
Completion: inactive

Prompt: What was the test verdict on CC[n+]1c(-c2ccccc2)c2cc(N)ccc2c2ccc(N)cc21 ?
Completion: inactive

---

Assay: chemical genetic growth profiling, strain panel (AID 1159580);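 note: tested at 20 µM; growth read once vehicle control cultures reached saturation at 30 °C; 1 = growth at the plate median or of vehicle wells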
Details: S. cerevisiae deletion strains, growth OD, locus YPL241C, strain CIN2
The whole screen tested about 5,500 compounds, of which about 2,000 (36%) were called active. About 18% were inconclusive and are not listed. No stated cut-off is given here; in the data, active means normalized growth mostly below about 0.91 (no sharp cut-off); inconclusive means no clear call, values can overlap the other calls; inactive means mostly above about 0.92. The list shows a part of the results.
Log the outcome using a class from active, inactive

Solved entries:
>  <COMPOUND>
O=C1CC(Nc2ccccc2)C=C1Nc1ccccc1 (stereo not drawn)

>  <CATEGORY_LABEL>
inactive

$$$$
>  <COMPOUND>
C=C1SC(Nc2cccc(C(F)(F)F)c2)=NC12CCCCC2

>  <CATEGORY_LABEL>
inactive

$$$$
>  <COMPOUND>
COCCCNC(=S)N/N=C\c1cccc(OC)c1O

>  <CATEGORY_LABEL>
inactive

$$$$
>  <COMPOUND>
FC(F)(F)c1ccc(Cl)c(NC(=S)NN=C2CCCCCC2)c1

>  <CATEGORY_LABEL>
inactive

$$$$
>  <COMPOUND>
CC1(C)C(=O)C=C[C@@]2(C)C1CC(=O)[C@]1(C)C2CC[C@@]2(C)[C@H](c3ccoc3)OC(=O)[C@H]3O[C@]321 (stereo partly drawn)

>  <CATEGORY_LABEL>
inactive

$$$$
>  <COMPOUND>
CCOC(=O)C1=C(N)Oc2ccc(Br)cc2C1C(C#N)C(=O)OCC (stereo not drawn)

>  <CATEGORY_LABEL>
active

$$$$
>  <COMPOUND>
CC1(C)C(=O)C=C[C@@]2(C)C1C[C@@H](O)[C@]1(C)C2CC[C@@]2(C)[C@H](c3ccoc3)OC(=O)[C@H]3O[C@]321 (stereo partly drawn)

>  <CATEGORY_LABEL>
inactive

$$$$

Prompt: For CCOC(=O)N/N=C\c1ccccc1OCC , which call appears in the assay record?
Completion: inactive

---

Some compounds, each annotated with its measured normalized growth.
Test: chemical genetic growth profiling, strain panel (AID 1159580);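 note: tested at 20 µM; growth read once vehicle control cultures reached saturation at 30 °C; 1 = growth at the plate median or of vehicle wells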
Conditions: S. cerevisiae deletion strains, growth OD, locus YIL147C, strain SLN1, stronger effect = lower value
Screen size: about 5,500 compounds; about 2,000 (36%) were called active. Another 18% or so got no clear call; they are omitted. The list shows a part of the results.
Answer field: number only, no words.

>  <COMPOUND>
O=S(=O)(CS(=O)(=O)Oc1ccc(Cl)c(Cl)c1)Oc1ccc(Cl)c(Cl)c1

>  <normalized growth>
0.943

$$$$

Field: next compound
Prompt: Form field: reported normalized growth of CC(NC(=S)N/N=C\c1ccccc1O)c1ccccc1 (configuration not stated)
Completion: 0.985

---

Assay: chemical genetic growth profiling, strain panel (AID 1159580);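 note: tested at 20 µM; growth read once vehicle control cultures reached saturation at 30 °C; 1 = growth at the plate median or of vehicle wells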
Conditions: S. cerevisiae deletion strains, growth OD, locus YPL241C, strain CIN2, stronger effect = lower value
Screen size: about 5,500 compounds; about 2,000 (36%) were called active. Roughly 18% stayed inconclusive and do not appear here. The list shows a part of the results.
Measured normalized growth accompanies every entry in the list below.
The response must contain the number and no unit.

>  <COMPOUND>
CNC(=O)Oc1cccc2c1OC(C)(C)O2

>  <DATA_VALUE>
1.02

$$$$
>  <COMPOUND>
O=C(O[C@@H]1Cc2c(O)cc(O)cc2O[C@@H]1c1cc(O)c(=O)c2c(O)c(O)cc([C@H]3Oc4cc(O)cc(O)c4C[C@H]3OC(=O)c3cc(O)c(O)c(O)c3)c2c1)c1cc(O)c(O)c(O)c1

>  <DATA_VALUE>
0.922

$$$$
>  <COMPOUND>
O=C1NC(=O)/C(=C/c2ccc(OS(=O)(=O)c3ccc(Cl)cc3)cc2)N1

>  <DATA_VALUE>
1

$$$$
>  <COMPOUND>
CC12CCC3c4ccc(OCc5ccccc5)cc4CCC3C1C[C@@H](O)[C@@H]2O (stereo not given in full)

>  <DATA_VALUE>
0.0593

$$$$

Prompt: What does the data say about its normalized growth? Entry: CCOC(=O)c1c(C)cc(OC)cc1O
Completion: 0.991

Prompt: Consider the compound CCN(Cc1ccncc1)C(=O)C(CO)c1ccccc1 (stereo not given) and give its measured normalized growth.
Completion: 0.999

Prompt: Endpoint output: normalized growth of CCC1OC(=O)[C@H](C)C(=O)[C@H](C)[C@@H](OC2O[C@H](C)C[C@H](N(C)C)[C@H]2O)[C@](C)(OC)C2(CCCn3cnc(-c4cccnc4)c3)C[C@@H](C)C(=O)[C@H](C)[C@H]3N(C2)C(=O)O[C@]13C (stereo not given in full) . Value?
Completion: 1

Prompt: Looking for the measured normalized growth of CCN(CC)C(=O)N[C@H]1C=C2c3cccc4[nH]cc(c34)C[C@H]2N(C)C1 , can you help?
Completion: 1

Prompt: // lookup normalized growth for COC(=O)c1c(C)cc(OC)cc1O
Completion: 0.994

Prompt: Sample COc1cc2c(cc1O)CC[C@@H]1[C@@H]2CC[C@]2(C)[C@@H](O)CC[C@@H]12 — what was its normalized growth?
Completion: 0.996

Prompt: Fill blank: measured normalized growth of the compound O=C(O)C1=C[C@@H](O)[C@@H](O)[C@H](O)C1 is ____.
Completion: 1.01
